Target: T1, R^525–610 A573S, N6His- and GST-tagged recombinant protein (maize)
T1 chain: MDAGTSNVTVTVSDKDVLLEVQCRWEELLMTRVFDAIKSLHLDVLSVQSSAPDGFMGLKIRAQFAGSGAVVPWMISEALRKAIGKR
Experiment: biological repeat 1
RECORDED_METRIC: pKd
Give bare numbers, as −log10 of the molar value.

pKd in this record for R^525–610 V568S, N6His- and GST-tagged recombinant protein (domain or fragment) MDAGTSNVTVTVSDKDVLLEVQCRWEELLMTRVFDAIKSLHLDSLSVQASAPDGFMGLKIRAQFAGSGAVVPWMISEALRKAIGKR : 6.54
